# study system: T1, human MSLN-FL-his protein (human, UniProt Q13421 296-580)
# T1 construct: made in HEK293E cells, purified on nickel column; also called hMSLN-FL-his; human MSLN full-length protein; not shown: His tag
# T1 sequence (Q13421 other isoform, or with tags, fused parts or gaps): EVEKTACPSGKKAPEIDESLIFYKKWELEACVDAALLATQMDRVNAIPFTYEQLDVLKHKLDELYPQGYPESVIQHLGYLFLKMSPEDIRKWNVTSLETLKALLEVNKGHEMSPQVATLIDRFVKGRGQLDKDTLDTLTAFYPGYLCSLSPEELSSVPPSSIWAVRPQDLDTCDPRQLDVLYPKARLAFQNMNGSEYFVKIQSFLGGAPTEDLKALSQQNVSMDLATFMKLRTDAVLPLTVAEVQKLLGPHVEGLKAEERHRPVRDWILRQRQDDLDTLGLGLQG
# assay name: competitive ELISA; row F8-9.16; also: test concentration or dose not given here
The entries below are paired with their reported competition rate.
measured endpoint: competition rate (%)

>>> assay_result("S009-F8-32.3 (antibody, human IgG1, kappa, V domains shown, human-murine chimeric antibody, human IgG1/kappa constant regions) VH: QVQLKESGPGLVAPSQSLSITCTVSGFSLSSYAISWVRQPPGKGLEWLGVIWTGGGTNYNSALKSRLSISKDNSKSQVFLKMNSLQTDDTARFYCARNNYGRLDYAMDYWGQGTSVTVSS VL: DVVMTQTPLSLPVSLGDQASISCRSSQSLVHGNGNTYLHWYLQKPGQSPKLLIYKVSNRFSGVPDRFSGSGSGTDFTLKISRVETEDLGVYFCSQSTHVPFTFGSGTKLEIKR")
-113
>>> assay_result("S009-F8-29.1 (antibody, human IgG1, kappa, V domains shown, human-murine chimeric antibody, human IgG1/kappa constant regions) VH: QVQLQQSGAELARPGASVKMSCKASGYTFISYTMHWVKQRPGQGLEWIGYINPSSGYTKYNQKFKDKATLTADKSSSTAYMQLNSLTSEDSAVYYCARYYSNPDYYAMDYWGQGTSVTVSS VL: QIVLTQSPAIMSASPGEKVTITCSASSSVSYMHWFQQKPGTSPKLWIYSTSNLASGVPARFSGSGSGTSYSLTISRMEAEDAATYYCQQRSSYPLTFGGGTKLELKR")
-37.3
>>> assay_result("S009-F8-33.12 (antibody, human IgG1, kappa, V domains shown, human-murine chimeric antibody, human IgG1/kappa constant regions) VH: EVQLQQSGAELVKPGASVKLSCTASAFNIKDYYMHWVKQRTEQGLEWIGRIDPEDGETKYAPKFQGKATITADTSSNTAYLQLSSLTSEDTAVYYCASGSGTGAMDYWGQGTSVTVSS VL: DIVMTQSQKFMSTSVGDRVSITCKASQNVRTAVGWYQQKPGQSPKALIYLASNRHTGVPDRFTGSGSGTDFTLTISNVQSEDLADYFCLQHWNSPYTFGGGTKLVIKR")
-89.6
>>> assay_result("S009-F8-8.22 (antibody, human IgG1, kappa, V domains shown, human-murine chimeric antibody, human IgG1/kappa constant regions) VH: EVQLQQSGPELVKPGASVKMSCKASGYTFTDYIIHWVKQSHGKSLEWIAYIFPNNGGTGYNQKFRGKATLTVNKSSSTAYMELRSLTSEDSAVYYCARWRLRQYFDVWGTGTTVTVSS VL: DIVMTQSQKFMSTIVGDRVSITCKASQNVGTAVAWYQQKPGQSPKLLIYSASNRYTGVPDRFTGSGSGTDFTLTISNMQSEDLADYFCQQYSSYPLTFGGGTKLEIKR")
-52.1
>>> assay_result("S009-F8-28.23 (antibody, human IgG1, kappa, V domains shown, human-murine chimeric antibody, human IgG1/kappa constant regions) VH: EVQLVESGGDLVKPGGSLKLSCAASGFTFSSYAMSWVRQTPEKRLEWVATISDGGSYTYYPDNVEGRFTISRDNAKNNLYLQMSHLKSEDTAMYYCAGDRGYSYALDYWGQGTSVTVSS VL: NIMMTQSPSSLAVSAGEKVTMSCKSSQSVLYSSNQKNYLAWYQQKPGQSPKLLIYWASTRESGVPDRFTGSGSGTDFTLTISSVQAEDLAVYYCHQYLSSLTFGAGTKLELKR")
-39.8
>>> assay_result("S009-F8-22.23 (antibody, human IgG1, kappa, V domains shown, human-murine chimeric antibody, human IgG1/kappa constant regions) VH: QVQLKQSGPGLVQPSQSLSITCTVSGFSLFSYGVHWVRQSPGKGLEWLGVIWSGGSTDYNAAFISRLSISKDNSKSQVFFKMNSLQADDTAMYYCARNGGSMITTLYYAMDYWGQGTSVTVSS VL: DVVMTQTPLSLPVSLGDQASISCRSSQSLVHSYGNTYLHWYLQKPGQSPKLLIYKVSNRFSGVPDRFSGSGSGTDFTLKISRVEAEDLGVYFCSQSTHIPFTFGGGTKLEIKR")
-158
>>> assay_result("S009-F8-24.14 (antibody, human IgG1, kappa, V domains shown, human-murine chimeric antibody, human IgG1/kappa constant regions) VH: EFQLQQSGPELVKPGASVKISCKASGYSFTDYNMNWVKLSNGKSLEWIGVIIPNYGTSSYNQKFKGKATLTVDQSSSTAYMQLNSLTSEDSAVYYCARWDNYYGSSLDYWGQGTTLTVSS VL: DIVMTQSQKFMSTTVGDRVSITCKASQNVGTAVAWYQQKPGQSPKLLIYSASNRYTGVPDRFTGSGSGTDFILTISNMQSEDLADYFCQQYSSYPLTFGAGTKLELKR")
-65.5
>>> assay_result("S009-F8-36.12 (antibody, human IgG1, kappa, V domains shown, human-murine chimeric antibody, human IgG1/kappa constant regions) VH: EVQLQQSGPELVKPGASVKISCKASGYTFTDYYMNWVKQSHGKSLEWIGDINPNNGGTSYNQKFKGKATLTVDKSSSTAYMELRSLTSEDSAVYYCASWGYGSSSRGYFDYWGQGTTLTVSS VL: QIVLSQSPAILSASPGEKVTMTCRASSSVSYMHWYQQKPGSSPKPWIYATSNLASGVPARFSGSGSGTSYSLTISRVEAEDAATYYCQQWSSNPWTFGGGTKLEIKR")
-47.7

From: patent US20250250357A1
